system: OVCAR-4 ovarian; assay: NCI tumour cell line growth inhibition, 48 h
Please go through the items and note down their TGI.

Recorded results for 8 compounds are shown here.
COc1ccc2c(c1)OCC1c3cc(O)ccc3OC21 (stereo not given)	> 100 µM
COc1ccc(NC(=S)N=Nc2c(O)[nH]c3ccccc23)cc1	> 95.2 µM
CN1C(=O)CC2(C)c3cc(O)ccc3N(C)C12 (stereo not given)	10.6 µM
COc1ccc(C(=O)n2nc(/C=C/c3ccc(O)c(OC)c3)cc2/C=C/c2ccc(O)c(OC)c2)cc1	5.44 µM
CC1=CC(=O)C(=C(C)C)CC1	> 100 µM
CN(C)C=Nc1ccc2nonc2c1	> 100 µM
O=c1[nH]c2ccc(C(F)(F)F)cc2nc1Cc1ccccc1	> 100 µM
CCCCCCCCCCCCCCCCCCNc1ccn(C2OC(CO)C(OP(=O)(O)OCC(COP(=O)(O)OCC3OC(n4cc(F)c(NCCCCCCCCCCCCCCCCCC)nc4=O)CC3O)OC(=O)CCCCCCCCCCCCCCC)C2O)c(=O)n1 (stereo not given)	> 100 µM

Items follow; give TGI for each.
1. O=C1c2ccccc2C(=O)c2c1ccc(C(Br)Br)c2Cl
2. CN1C(=O)/C(=C/c2c(Cl)[nH]c3ccccc23)c2ccccc21

1. 4.3 µM
2. > 100 µM
